Each record here notes measured inhibition at 1 µM.
target: HIV-1 RT (Human immunodeficiency virus type 1 group M subtype B); construct: Reverse transcriptase enzyme from the LAV strain of Human Immunodeficiency Virus (HIV-1) (1) was isolated; made in house; host or cells: E. coli JM109, clone pBRTprtl+ in vector pIBI21 (lac promoter, IPTG induction); experiment: Reverse Transcriptase (RT) Assay: inhibition of RNA-dependent DNA polymerase activity; format: biochemical; conditions: @ 1µM (footnote *); read-out: RT Assay % inhibition
Give just the number in %; leave the unit off.

Worked examples follow.
CCN1c2ncc(N=[N+]=[N-])cc2C(=O)N(C)c2cccnc21
63
CCN1c2ncccc2C(=O)Nc2c1nc(N1CCCC1)c(Cl)c2C
94
C=CCN1C(=O)c2cccnc2N(C2CC2)c2nccc(C)c21
44
CCN1c2ncc(N)cc2C(=O)N(C)c2cc(N)cnc21
20
Cc1ccnc2c1N(C)C(=O)c1cccnc1N2C1CC1
50

Request: Consider the molecule `CCN1c2ncccc2C(=O)N(C)c2ccc(N3CCCCC3)nc21` and give its measured inhibition at 1 µM.
Result: 66

Request: Subsequent entry: `CN1C(=O)c2cccnc2N(C2CCCC2)c2ncccc21`
Result: 34

Request: Also need `CCN1c2ncccc2C(=O)N(C)c2ccc(N3CC=CC3)nc21` , thanks.
Result: 86

Request: Consider next the molecule `CCc1ccnc2c1NC(=O)c1cccnc1N2C1CC1` in the same way.
Result: 76

Request: Please give the result for `CN1C(=O)c2cccnc2N(C2CCCCC2)c2ncccc21` too.
Result: 90

----------
biological target: HIV-1 RT (Human immunodeficiency virus type 1 group M subtype B); construct: Reverse transcriptase enzyme from the LAV strain of Human Immunodeficiency Virus (HIV-1) (1) was isolated; made in house; host or cells: E. coli JM109, clone pBRTprtl+ in vector pIBI21 (lac promoter, IPTG induction); assay: Reverse Transcriptase (RT) Assay: inhibition of RNA-dependent DNA polymerase activity; assay type: biochemical; conditions: read-out: RT Assay % inhibition @ 10 µg/ml
Entries and their inhibition at 10 µg/mL values follow.
State just the number; it will be interpreted in %.

CCN1c2ncccc2C(=O)Nc2c(C)ccnc21 [Example 2]
100

Request: Which value of inhibition at 10 µg/mL has been reported for CCN1c2ncccc2NC(=O)c2c1nc(C)c(Cl)c2C [Example 46] in the records?
Result: 44

Request: CCN1c2ncccc2NC(=O)c2cccnc21 [Example 14] ?
Result: 99

Request: // same read-out, input: CCN1c2ncccc2C(=O)N(C)c2cc(C)c(C)nc21 [Example 22]
Result: 100

Request: Ok, now CN1C(=O)c2cccnc2N(S(C)(=O)=O)c2ncccc21 [Example 48]
Result: 77

----------
assay: MTT Assay for Cellular Cytotoxicity; settings: human, h9 cells
quantityName: CC50 at 120 h (µM)
Numbers only here, please. The scale is µM.

Known CC50 at 120 h results, listed for orientation:
CCN1c2ncccc2C(=O)N(C)c2ccc(N3CCCC3)nc21
45
Cc1ccnc2c1NC(=O)c1cccnc1N2C1CC1
250
CCN1c2ncccc2C(=O)Nc2c(C)cc(OC)nc21
350

Query molecule follows.
Request: Please report the recorded CC50 at 120 h for `CCN1c2ncccc2C(=O)Nc2c(C)ccnc21` .
Result: 200

----------
target: HIV-1 RT (Human immunodeficiency virus type 1 group M subtype B, UniProt P03367); construct: Reverse transcriptase enzyme from the LAV strain of Human Immunodeficiency Virus (HIV-1) (1) was isolated; made in house; host or cells: E. coli JM109, clone pBRTprtl+ in vector pIBI21 (lac promoter, IPTG induction); assay: Reverse Transcriptase (RT) Assay: inhibition of RNA-dependent DNA polymerase activity; assay type: biochemical; conditions: read-out: RT Assay % inhibition @ 10 µg/ml
quantityName: inhibition at 10 µg/mL (%)
Answer with a number only, understood to be in %.

Below, each entry is followed by its recorded inhibition at 10 µg/mL result.
CN1C(=O)c2cccnc2N(C2CCC2)c2ncccc21
100
O=C1Nc2cccnc2N(C2CCC2)c2ncccc21
99
CC(C)N1c2ncccc2NC(=O)c2cccnc21
99
COCN1C(=O)c2cccnc2N(COC)c2nccc(C)c21
0
COc1ccnc2c1NC(=O)c1cccnc1N2C1CC1
91
CCN1c2ncccc2C(=O)Nc2c(C(F)(F)F)cc(Cl)nc21
100
CN1C(=O)c2cccnc2N(CC2CC2)c2ncccc21
93
O=C1Nc2cccnc2N(C2CC2)c2ncccc21
99
CC[C@@H](C)N1c2ncccc2NC(=O)c2cccnc21
85

Would you kindly look at the next entry?
Request: Given `CN1C(=O)c2cccnc2N(C(C)(C)C)c2ncccc21` , state its recorded inhibition at 10 µg/mL.
Result: 87

// provenance: patent EP0429987B1
